B1: PTPLAD1 (parent)
chain: YSFYMLTCIDMDWKVLTWLRYTLW

variants of: B1; test: protein stability index of a GFP-peptide fusion (GPS, HEK-293T) (PSI 1-6); higher = more stable; settings: c terminus: a fixed tail appended;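 note: lentivirally expressed fusions sorted by FACS into six bins by GFP to DsRed ratio, PSI derived from sequencing read proportions per bin multiplied by bin number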
In this section we review reported protein stability index values for a set of variants.
Reply with just the number.

INPUT: Looking for the measured protein stability index of Y1L , can you help?
OUTPUT: 1.47

The measured values listed here are drawn from the supplement of paper PMC10567573.
